# experiment.notes: probe aWnt5a binding to arrayed compounds – biochemical, biotinylated probe, 635/667 nm fluorescence, primary screen (AID 1113);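 note: score merges 667 nm fluorescence intensity with signal-to-noise per printed feature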
# condition.label: small-molecule microarray, higher = more signal
Parameter threshold = 0.03. Response is true when composite z-score meets or exceeds it, else false.

Study these solved cases before continuing.
{"compound": "CCCCCC1=C2CNC(Cc3ccccc3)(C(=O)OC)C=C2C(C)C1=O (stereo not drawn)", "class.label": "false"}
{"compound": "C=CCOC(=O)[C@H]1[C@@H]2C(=O)O[C@@H](c3ccccc3)[C@@H](c3ccccc3)N2[C@@H](c2ccc(OCCOC(=O)[C@@H]3C[C@@H]4C(=O)N[C@@H](CCCC[N+](C)(C)C)C(=O)N4[C@@H]3c3ccc(O)cc3)cc2)[C@]12C(=O)Nc1ccc(I)cc12", "class.label": "true"}
{"compound": "C=CCOC(=O)[C@@H]1[C@H]2C(=O)O[C@H](c3ccccc3)[C@H](c3ccccc3)N2[C@H](c2ccc(OCCOC(=O)[C@H]3C[C@H]4C(=O)N5CCC[C@H]5C(=O)N4[C@H]3c3cccc(OCCO)c3)cc2)[C@@]12C(=O)Nc1ccc(I)cc12", "class.label": "false"}
{"compound": "CC(C)=CCCC(C)=CC(O)C1C=CC2C(=O)NC(=O)C2N1Nc1ccccn1 (stereo not drawn)", "class.label": "true"}
{"compound": "COc1ccc(C(O)C2C=CC3C(=O)N(c4ccccc4)C(=O)C3N2Nc2ccc(C#N)cc2)cc1OCc1ccccc1 (stereo not drawn)", "class.label": "true"}

Task: hey, is composite z-score for this one >= 0.03? `COc1ccc(C(=O)Nc2cccc(CN3C(=O)[C@]4(O[C@H](CC(=O)N5Cc6ccccc6C[C@H]5CO)[C@@H]([Si](C)(C)c5ccc(OC)cc5)[C@@H]4C)c4ccccc43)c2)cc1`
Output: false

Task: Try the compound NC(=O)N1C(=O)C2C(C1=O)C1C=C(CCCO)C2C(c2ccc(CN3CCCC3)cc2)N1Cc1sc2ccccc2c1Cl (stereo not drawn)
Output: false

Task: `O=C1N(CCS(=O)(=O)c2ccccc2)c2ccccc2C[C@]12N=C(c1ccc(OCCCO)cc1)O[C@@H]2c1ccccc1` , same question.
Output: true

Task: Now the compound CC=CC(O)C1C=CC2C(=O)NC(=O)C2N1Nc1ccc(Cl)cc1Cl (stereo not drawn)
Output: false

Task: Okay, and `CC[C@@H]1C=C(C(=O)O)[C@H](c2ccc(OC)cc2)N1S(=O)(=O)c1ccc(C)cc1` ?
Output: false

====

# assay.system: Epidermal growth factor receptor (Homo sapiens)
# experiment.notes: compounds binding epidermal growth factor receptor – biochemical, small-molecule microarray, 635 nm fluorescence, primary screen (AID 1104);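 note: score merges 667 nm emission intensity with spot signal to noise over triplicate slides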
# condition.label: EGFR binding, higher = more signal
readout.label: composite z-score
Answer as a number with no unit attached.

Example entries and their recorded answers appear below.
{"molecule": "[N-]=[N+]=Nc1ccccc1[C@@H]1OC(c2ccc(OCCCO)cc2)=N[C@]1(Cc1ccccc1)C(=O)NCCN1CCOCC1", "composite z-score": -0.04}
{"molecule": "CN(C)CCCNC(=O)[C@@H]1c2ccccc2C(=O)N(Cc2ccccc2C(F)(F)F)[C@H]1c1ccc(CO)cc1", "composite z-score": -0.899}
{"molecule": "COc1ccc([Si](C)(C)[C@H]2[C@H](CCO)O[C@@]3(C(=O)N(Cc4cccc(N(C=O)c5ccccc5)c4)c4ccccc43)[C@@H]2C)cc1", "composite z-score": 0.406}
{"molecule": "CCCC[C@H]1OB(O)C[C@H]2C1=C(COc1ccccc1)C[C@H]1C(=O)C=CC(=O)[C@H]12", "composite z-score": 0.286}
{"molecule": "CC(C)[Si](C#CCCc1ccccc1)(O[C@H](c1ccccc1)c1cn(Cc2ccccc2)nn1)C(C)C", "composite z-score": 0.618}

Task: Need composite z-score of `COC(=O)[C@@]1(Cc2ccc(OC)cc2)[C@H]2c3cc(C(=O)N4CCCC4)n(Cc4c(CO)[nH]cc(C)c4=O)c3C[C@H]2CN1C(=O)c1ccccc1` , thanks.
Output: -0.0221

Task: COc1ccc(C(O)C2C=CC3C(=O)N(c4ccccc4)C(=O)C3N2Nc2ccc(C#N)cc2)cc1OCc1ccccc1 (stereo not given) ?
Output: 0.0706

Task: Lookup CCCc1cc2c(n1CCc1ccc(Cl)cc1)C(C)C1CN(C(=O)c3ccccc3)C(C)(C(=O)OC)C21 (stereo not given)
Output: -0.403

Task: Next molecule: `COC(=O)[C@@]1(Cc2ccccc2)[C@H]2c3cc(C(=O)N(C)C)n(Cc4ccc(S(C)(=O)=O)cc4)c3C[C@H]2CN1C(=O)c1ccccc1`
Output: -0.366

Task: Entry to check: `COCCCNC(=O)[C@@H]1c2ccccc2C(=O)N(Cc2ccc(OC(F)(F)F)cc2)[C@H]1c1ccc(CO)cc1`
Output: 0.0725
